biological target: ABCA4 P1380L (Homo sapiens, UniProt P78363, P1380L); construct: expressed in transfected cells; test: A4 correction dose-response assay: ABCA4 P1380L HiBit protein expression; type: cell-based; conditions: HEK-293 cells stably expressing HiBit-tagged ABCA4 P1380L; 24 h treatment; top concentration 30 μM; read-out: ABCA4 P1380L EC50, Emax
Sequence (P78363 whole entry P1380L): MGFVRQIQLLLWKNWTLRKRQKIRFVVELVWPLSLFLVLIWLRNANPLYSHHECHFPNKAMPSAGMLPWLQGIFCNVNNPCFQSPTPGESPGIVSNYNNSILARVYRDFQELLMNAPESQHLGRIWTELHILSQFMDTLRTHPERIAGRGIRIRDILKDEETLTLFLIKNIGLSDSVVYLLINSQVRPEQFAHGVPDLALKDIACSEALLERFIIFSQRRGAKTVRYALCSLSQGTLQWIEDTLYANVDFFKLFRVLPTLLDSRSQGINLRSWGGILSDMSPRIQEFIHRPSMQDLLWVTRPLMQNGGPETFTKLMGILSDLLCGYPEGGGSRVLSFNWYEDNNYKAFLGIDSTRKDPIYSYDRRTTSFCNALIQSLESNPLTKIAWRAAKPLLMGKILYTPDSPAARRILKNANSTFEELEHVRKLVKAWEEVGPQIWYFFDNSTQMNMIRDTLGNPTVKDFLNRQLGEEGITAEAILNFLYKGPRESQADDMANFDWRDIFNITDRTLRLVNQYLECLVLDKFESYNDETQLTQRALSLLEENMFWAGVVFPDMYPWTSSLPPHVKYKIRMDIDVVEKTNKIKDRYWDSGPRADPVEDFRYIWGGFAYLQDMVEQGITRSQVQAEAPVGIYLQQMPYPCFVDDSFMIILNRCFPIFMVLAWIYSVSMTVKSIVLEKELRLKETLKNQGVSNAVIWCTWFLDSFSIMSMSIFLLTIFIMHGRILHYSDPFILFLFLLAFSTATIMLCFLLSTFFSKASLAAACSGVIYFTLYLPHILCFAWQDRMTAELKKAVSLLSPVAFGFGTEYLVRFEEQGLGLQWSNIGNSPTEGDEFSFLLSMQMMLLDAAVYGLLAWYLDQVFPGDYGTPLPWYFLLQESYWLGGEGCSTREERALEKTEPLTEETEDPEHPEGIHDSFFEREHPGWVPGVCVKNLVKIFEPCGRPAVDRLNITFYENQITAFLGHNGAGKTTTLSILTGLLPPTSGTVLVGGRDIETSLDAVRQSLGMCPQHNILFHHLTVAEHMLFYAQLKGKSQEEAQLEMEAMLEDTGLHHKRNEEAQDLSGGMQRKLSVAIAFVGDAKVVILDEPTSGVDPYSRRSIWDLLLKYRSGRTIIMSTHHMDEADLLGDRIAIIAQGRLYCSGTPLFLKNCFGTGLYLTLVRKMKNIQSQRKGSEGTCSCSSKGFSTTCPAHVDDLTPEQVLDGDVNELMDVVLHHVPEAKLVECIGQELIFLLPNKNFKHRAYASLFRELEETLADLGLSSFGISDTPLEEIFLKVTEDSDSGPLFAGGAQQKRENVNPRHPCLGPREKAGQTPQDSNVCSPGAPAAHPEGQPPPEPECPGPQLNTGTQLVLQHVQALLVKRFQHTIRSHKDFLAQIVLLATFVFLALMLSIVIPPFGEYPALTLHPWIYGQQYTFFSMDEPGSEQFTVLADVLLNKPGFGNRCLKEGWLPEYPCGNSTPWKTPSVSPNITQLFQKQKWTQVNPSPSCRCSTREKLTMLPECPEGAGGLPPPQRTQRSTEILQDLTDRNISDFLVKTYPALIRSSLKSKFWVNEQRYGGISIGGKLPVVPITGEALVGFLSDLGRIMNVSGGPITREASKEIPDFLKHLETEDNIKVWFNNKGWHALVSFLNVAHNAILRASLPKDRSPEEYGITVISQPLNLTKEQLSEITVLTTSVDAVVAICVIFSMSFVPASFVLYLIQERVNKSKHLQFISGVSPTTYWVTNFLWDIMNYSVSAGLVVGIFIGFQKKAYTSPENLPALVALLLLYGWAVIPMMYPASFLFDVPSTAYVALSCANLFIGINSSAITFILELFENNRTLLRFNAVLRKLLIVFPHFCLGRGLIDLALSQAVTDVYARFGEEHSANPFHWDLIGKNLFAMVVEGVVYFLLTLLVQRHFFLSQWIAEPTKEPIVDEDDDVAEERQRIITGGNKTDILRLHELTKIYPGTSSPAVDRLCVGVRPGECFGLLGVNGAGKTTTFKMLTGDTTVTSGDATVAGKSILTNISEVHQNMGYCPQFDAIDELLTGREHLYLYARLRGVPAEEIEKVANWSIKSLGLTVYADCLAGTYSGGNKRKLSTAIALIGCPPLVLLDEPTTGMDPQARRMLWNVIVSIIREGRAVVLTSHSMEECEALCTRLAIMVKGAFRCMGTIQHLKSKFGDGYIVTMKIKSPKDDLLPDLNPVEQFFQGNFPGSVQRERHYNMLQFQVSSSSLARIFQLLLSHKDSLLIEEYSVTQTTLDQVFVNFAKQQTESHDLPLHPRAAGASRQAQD
pEC50: −log10 of the molar value.
Exercise: state measured pEC50 for each of the compounds provided.

In: Item Cc1cc(C)c(Oc2nc(N3CCN(C(=O)N(C)C)CC3)ccc2NS(C)(=O)=O)c(C)c1 has what recorded pEC50?
Out: < 4.60

In: Item Cc1cc(C2CC2)nc(C)c1Oc1nc(N2CCN(C(=O)C3CC3)CC2)ccc1NS(C)(=O)=O has what recorded pEC50?
Out: 5.00 to 6.00

In: Item Cc1cc(C)c(Oc2nc(-c3cncc(C#N)c3)ccc2S(C)(=N)=O)c(C)n1 (stereo not drawn) has what recorded pEC50?
Out: < 4.60

In: Item Cc1cc(C(F)(F)F)nc(C)c1Oc1nc(-c2cncc(C#N)c2)ccc1NS(=O)(=O)C1CC1 has what recorded pEC50?
Out: > 6.00

In: Item Cc1cc(C)c(Oc2nc(-c3cncc(Cl)c3)ccc2S(=O)(=O)NC2CC2)c(C)c1 has what recorded pEC50?
Out: < 4.60

In: Item CCS(=O)(=O)Nc1ccc(-c2cncc(C#N)c2)nc1Oc1c(C)cc(C(F)(F)F)nc1C1CC1 has what recorded pEC50?
Out: > 6.00

In: Item Cc1nc(OC2CC2)c(C(F)(F)F)cc1Oc1nc(-c2cncc(C#N)c2)ccc1NS(C)(=O)=O has what recorded pEC50?
Out: < 4.60

In: Item Cc1cc(C2CC2)nc(C2CC2)c1Oc1nc(-c2cncc(C#N)c2)ccc1NS(C)(=O)=O has what recorded pEC50?
Out: > 6.00

In: Item Cc1cc(C(F)F)nc(C)c1Oc1nc(-c2ccnc(C#N)c2)ccc1NS(=O)(=O)C1CC1 has what recorded pEC50?
Out: > 6.00

In: Item Cc1cc(C)c(Oc2nc(-c3cncc(C#N)c3)ncc2NS(C)(=O)=O)c(C)c1 has what recorded pEC50?
Out: > 6.00

In: Item Cc1cc(C)c(Oc2nc(-c3cncc(Cl)c3)ccc2NS(=O)(=O)C2COC2)c(C)n1 has what recorded pEC50?
Out: > 6.00

In: Item Cc1nc(C(F)F)nc(C)c1Oc1nc(-c2cncc(C#N)c2)ccc1NS(C)(=O)=O has what recorded pEC50?
Out: > 6.00

In: Item Cc1cc(C(F)(F)F)nc(C)c1Oc1nc(-c2cncc(C3COC3)c2)ccc1NS(C)(=O)=O has what recorded pEC50?
Out: < 4.60

In: Item Cc1cc(C)c(Oc2nc(-c3cncc(N4CCC4)c3)ccc2NS(C)(=O)=O)c(C)n1 has what recorded pEC50?
Out: > 6.00

In: Item Cc1cc(C)c(Oc2nc(N3CCN(S(=O)(=O)C4CC4)CC3)ccc2NS(C)(=O)=O)c(C)c1 has what recorded pEC50?
Out: 4.60 to 5.00
